Field: hERG current change (%, negative = inhibition) at 10uM. Provide a value for each of the compounds that follow.
biological target: human ether-à-go-go-related gene (hERG) potassium channel (human, UniProt Q12809); assay: primary screen, population patch clamp on CHO cells stably expressing hERG; higher = less effect of the substance;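 note: peak tail current of the secondary pulse compared with the same well before compound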
Sequence (Q12809 whole entry, looked up): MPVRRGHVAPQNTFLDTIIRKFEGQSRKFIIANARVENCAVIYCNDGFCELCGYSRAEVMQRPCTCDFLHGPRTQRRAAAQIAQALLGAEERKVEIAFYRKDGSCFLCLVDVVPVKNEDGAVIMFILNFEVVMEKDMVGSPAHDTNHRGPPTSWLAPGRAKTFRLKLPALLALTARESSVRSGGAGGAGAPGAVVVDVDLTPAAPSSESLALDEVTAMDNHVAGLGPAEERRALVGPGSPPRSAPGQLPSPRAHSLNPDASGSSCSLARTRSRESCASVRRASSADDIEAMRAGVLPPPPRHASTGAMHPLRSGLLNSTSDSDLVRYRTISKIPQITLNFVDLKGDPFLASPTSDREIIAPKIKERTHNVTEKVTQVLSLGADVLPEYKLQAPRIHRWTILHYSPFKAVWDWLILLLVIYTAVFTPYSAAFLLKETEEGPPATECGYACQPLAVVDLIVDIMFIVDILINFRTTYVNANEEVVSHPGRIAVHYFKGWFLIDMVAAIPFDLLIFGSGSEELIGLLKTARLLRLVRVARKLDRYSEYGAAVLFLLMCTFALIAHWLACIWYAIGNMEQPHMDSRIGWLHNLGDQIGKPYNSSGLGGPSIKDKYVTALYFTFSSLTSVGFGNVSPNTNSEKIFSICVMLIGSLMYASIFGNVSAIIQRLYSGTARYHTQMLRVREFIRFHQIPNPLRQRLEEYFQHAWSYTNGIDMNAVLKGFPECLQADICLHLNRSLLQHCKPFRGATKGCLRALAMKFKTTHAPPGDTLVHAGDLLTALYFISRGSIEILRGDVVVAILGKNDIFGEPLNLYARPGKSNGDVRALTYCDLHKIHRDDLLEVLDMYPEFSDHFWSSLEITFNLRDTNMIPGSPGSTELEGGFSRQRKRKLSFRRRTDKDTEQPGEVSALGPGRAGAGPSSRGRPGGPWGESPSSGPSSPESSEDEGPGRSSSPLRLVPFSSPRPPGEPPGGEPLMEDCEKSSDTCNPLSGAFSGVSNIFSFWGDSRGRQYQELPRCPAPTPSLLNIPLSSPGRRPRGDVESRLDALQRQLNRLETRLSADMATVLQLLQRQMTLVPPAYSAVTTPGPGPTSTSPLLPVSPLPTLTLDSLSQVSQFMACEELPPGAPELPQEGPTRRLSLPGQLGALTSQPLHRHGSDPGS
Among all 310,000 compounds or so, about 14,000 (4.5%) showed an effect of 50% or more. The effect is printed as a negative number. Many of the other results were omitted from the sample, so strong results are more common in it than they were.
One number for each entry, in %.

CCCCCn1c(SCC(=O)OCC)nc2cc(C(=O)N3CCC(C(N)=O)CC3)ccc2c1=O ... -58.4
CCCCn1c(SC(C)C(=O)NCC2CCCO2)nc2cc(C(=O)OC)ccc2c1=O (centres unmarked) ... -44.9
CCCCCn1c(SCC2CCCO2)nc2cc(C(=O)N3CCC(C(N)=O)CC3)ccc2c1=O (centres unmarked) ... -64.7

Could you tell me hERG current change (%, negative = inhibition) at 10uM for each of these compounds? They are listed below.
1. CCOC(=O)CSc1nc2cc(C(=O)N3CCC(C(N)=O)CC3)ccc2c(=O)n1C1CCCCC1
2. CC(=O)Nc1ccc(C(=O)NN2C(=O)c3ccccc3C2=O)cc1

Result block:
1. -10.7
2. 7.29
